Source of measurements: patent US20240309109A1

# TEST TARGET: CD38 (antigen of the Bioveris affinity determination) (Homo sapiens (Human), UniProt P28907 45-300, limits assumed)
# METHOD SUMMARY: Bioveris, Fab format
QUANTITY NAME: pKd
Scale for pKd: -log10 of concentration given in mol/L; no unit attached.

binder="MOR06186 Fab (Fab, V domains shown, Fab format) VH: QVQLVESGGGLVQPGGSLRLSCAASGFTFSSYYMNWVRQAPGKGLEWVSAINLSGSAKYYADSVKGRFTISRDNSKNTLYLQMNSLRAEDTAVYYCARDLPLVYTGFAYWGQGTLVTVSS VL: DIELTQPPSVSVAPGQTARISCSGDNLRHYYVYWYQQKPGQAPVLVIYGDSKRPSGIPERFSGSNSGNTATLTISGTQAEDEADYYCQTYTGGASLVFGGGTKLTVL" quantity_name=pKd observed=11.29

Request the reported pKd associated with MOR06192 Fab (Fab, V domains shown, Fab format) VH: QVQLVESGGGLVQPGGSLRLSCAASGFTFSSYYMNWVRQAPGKGLEWVSVISPGGEAKSYADSVKGRFTISRDNSKNTLYLQMNSLRAEDTAVYYCARDLPLVYTGFAYWGQGTLVTVSS VL: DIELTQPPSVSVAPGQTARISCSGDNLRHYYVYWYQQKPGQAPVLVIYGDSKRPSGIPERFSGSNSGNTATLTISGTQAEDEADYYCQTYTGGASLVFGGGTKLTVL
10.13
